Values compiled from PubChem BioAssay (Tox21).

experiment: Nuclear factor erythroid 2-related factor 2/antioxidant responsive element (Nrf2/ARE) small molecule agonists: luciferase reporter gene qHTS assay in human keratinocytes (AID 1919969); conditions: KeratinoSens HaCaT ARE-luciferase, luminescence, 24 h; series mostly up to 92.4 µM; further: nearly all actives have a fitted effect of over 35% in size
Results filed as inconclusive are left out. Active and inactive are the calls of the source. The call rests on the fitted dose curve.
One label from this list, please: yes (1) for active, no (0) for inactive

Before answering, review these 10 worked examples.
# molecule, cat
measured = [
    ("Clc1ccc(C(Cl)(Cl)Cl)cc1", "no (0)"),
    ("O=[N+]([O-])/N=C1\\NCCN1Cc1ccc(Cl)nc1", "no (0)"),
    ("CCCC[n+]1cccc(C)c1", "no (0)"),
    ("Cc1ccc2ccccc2c1", "no (0)"),
    ("C[C@]12CCC(=O)C=C1CC[C@@H]1[C@@H]2CC[C@]2(C)C(=O)CC[C@@H]12", "no (0)"),
    ("CC(C)NC(=O)N1CC(=O)N(c2cc(Cl)cc(Cl)c2)C1=O", "no (0)"),
    ("Cl/C=C\\CCl", "no (0)"),
    ("CNCC(O)c1ccc(O)cc1 (stereo unspecified)", "no (0)"),
    ("N#CCCCCC#N", "no (0)"),
    ("C/C=C/c1ccc2c(c1)OCO2", "no (0)"),
]

Input line: In this assay, the call recorded for `C=CCc1ccccc1O` was what?
Output line: no (0)

Input line: In this assay, the call recorded for `CC1=C2[C@H]3OC(=O)[C@@H](C)[C@@H]3CC[C@@]2(C)C=CC1=O` was what?
Output line: no (0)

Input line: In this assay, the call recorded for O=C1C2(Cl)C3(Cl)C4(Cl)C(Cl)(Cl)C5(Cl)C3(Cl)C1(Cl)C5(Cl)C24Cl (stereo unspecified) was what?
Output line: no (0)

Input line: In this assay, the call recorded for `O=S(=O)(c1ccccc1)c1ccccc1` was what?
Output line: no (0)

Input line: In this assay, the call recorded for `ClC(Cl)(Cl)C(Cl)(Cl)Cl` was what?
Output line: no (0)

Input line: In this assay, the call recorded for `CC(C)CCCCCOC(=O)c1ccccc1C(=O)OCCCCCC(C)C` was what?
Output line: no (0)

---

assay: Nuclear factor erythroid 2-related factor 2/antioxidant responsive element (Nrf2/ARE) small molecule agonists: luciferase reporter gene qHTS assay in human keratinocytes (AID 1919969); conditions: KeratinoSens HaCaT ARE-luciferase, luminescence, 24 h; series mostly up to 92.4 µM; further: nearly all actives have a fitted effect of over 35% in size
Results filed as inconclusive are left out. The source made the active and inactive calls. Calls follow the shape of the full dose curve.
One label from this list, please: active, inactive

Before answering, review these 8 worked examples.
# compound, cat
records = [
    ("Cc1cnc(C2=NC(C)(C(C)C)C(=O)N2)c(C(=O)O)c1 (configuration not stated)", "inactive"),
    ("c1ccc(-c2ccccc2)cc1", "inactive"),
    ("CCCCON=O", "inactive"),
    ("N[C@@H](Cc1ccc(N(CCCl)CCCl)cc1)C(=O)O", "inactive"),
    ("CCNc1nc(NCC)nc(SC)n1", "inactive"),
    ("Cc1ccc(N)c(C)c1", "inactive"),
    ("CCCCC#N", "inactive"),
    ("CCCC[n+]1ccccc1", "inactive"),
]

Input line: In this assay, the call recorded for `CC(C)OC(=O)Nc1cccc(Cl)c1` was what?
Output line: inactive

Input line: In this assay, the call recorded for `O=C(O)c1ccc(=O)[nH]c1` was what?
Output line: inactive

Input line: In this assay, the call recorded for `N#CCNCC#N` was what?
Output line: inactive

Input line: In this assay, the call recorded for `N#CCc1ccccc1` was what?
Output line: inactive

Input line: In this assay, the call recorded for `C1CN2CCN1CC2` was what?
Output line: inactive

Input line: In this assay, the call recorded for CCCCC(CC)C(=O)Cl (configuration not stated) was what?
Output line: inactive

Input line: In this assay, the call recorded for `C=CCc1ccc2c(c1)OCO2` was what?
Output line: inactive

Input line: In this assay, the call recorded for `COc1cc2c(cc1OC)[C@@]13CCN4CC5=CCO[C@H]6CC(=O)N2[C@H]1[C@H]6[C@H]5C[C@H]43` was what?
Output line: inactive

Input line: In this assay, the call recorded for `c1ccc2c(c1)CCCC2` was what?
Output line: inactive

Input line: In this assay, the call recorded for `CCNc1nc(NC(C)C)nc(SC)n1` was what?
Output line: inactive

Input line: In this assay, the call recorded for `CCCCCCCCCl` was what?
Output line: inactive

---

test: p53 small molecule agonists, cell-based qHTS assay with rat liver microsomes (AID 1963578); settings: HCT-116 p53RE-bla, beta-lactamase ratio, 16 h; series mostly up to 66 µM
Inconclusive results are not listed. Active and inactive are the calls of the source. Calls come from the whole dose curve.
metric_name: activation

# compound, activation
rows = [
    ("Nc1ccc([N+](=O)[O-])cc1N", "inactive"),
    ("O=C(CCl)CCl", "inactive"),
    ("C=C(C)[C@@H]1CC=C(C=O)CC1", "inactive"),
    ("Cc1ccc2ccccc2c1", "inactive"),
    ("ClCC(Cl)CCl", "inactive"),
]

Lab note: `C#CCO` gave activation of inactive

Lab note: `C=C(C)C#N` gave activation of inactive

Lab note: CC(O)CN(CC(C)O)CC(C)O (stereo unspecified) gave activation of inactive

Lab note: `Clc1ccc(Cl)c(Cl)c1` gave activation of inactive

Lab note: `CCCCCCCCCCBr` gave activation of inactive

---

Molecular target: 5-hydroxytryptamine receptor 2A (Homo sapiens)
Assay: 5-hydroxytryptamine receptor 2A (HTR2A) small molecule antagonists, cell-based qHTS assay (AID 1963586); further: nearly all actives have a fitted effect of over 45% in size
Settings: HTR2A-CHO cells, DOI-induced calcium flux, fluorescence; series mostly up to 61.5 µM
Procedure: National Center for Advancing Translational Sciences [NCATS] Division of Preclinical Innovation [DPI] U.S. Environmental Protection Agency [EPA] National Institutes of Environmental Health Sciences [NIEHS] National Toxicology Program [NTP] […] HTR2A-CHO cells were dispensed at 2000 cells/3uL/well in 1536-well black-clear bottom plates using a Multidrop Dispenser. […] The fluorescence intensity in the plates was measured using FDSS 7000EX kinetic plate reader for 3 min at 1 sec intervals.
Inconclusive results are not listed. Active and inactive are the calls of the source. The call rests on the fitted dose curve.
One label from this list, please: YES = active, NO = inactive

Before answering, review these 6 worked examples.
# molecule, cat
data = [
    ("CCOP(=O)(OCC)Oc1ccc([N+](=O)[O-])cc1", "NO"),
    ("ClCC(Cl)CCl", "NO"),
    ("Nc1ccccc1C(=O)OCC(O)CO (configuration not stated)", "NO"),
    ("CC(=O)CCC(C)=O", "NO"),
    ("COS(=O)(=O)OC", "NO"),
    ("C=CCBr", "NO"),
]

Now look at this entry.
Input line: In this assay, the call recorded for `N#CCc1ccccc1` was what?
Output line: NO

---

assay: cAMP Responsive Elements (CRE) small molecule agonists, cell-based qHTS assay (AID 1963590); conditions: CRE-bla HEK293T, beta-lactamase FRET ratio, 3 h; series mostly up to 92.4 µM
Results filed as inconclusive are left out. Active and inactive are the calls of the source. Calls follow the shape of the full dose curve.
metric_name: activation

Reference set, count: 10
# molecule, activation
records = [
    ("CCCCCCOC(=O)c1ccccc1C(=O)OCCCCCC", "inactive"),
    ("[O-][Cl+]O", "inactive"),
    ("CCC(=O)c1ccccc1", "inactive"),
    ("CN(C)C(=O)C(c1ccccc1)c1ccccc1", "inactive"),
    ("C=CCOC(N)=O", "inactive"),
    ("C[C@@H]1CN(C2CCC(C#N)(c3ccc(F)cc3)CC2)CC[C@]1(C(=O)O)c1ccccc1 (stereo not given in full)", "inactive"),
    ("O=NN1CCCCC1", "inactive"),
    ("CCNc1nc(NC(C)(C)C)nc(SC)n1", "inactive"),
    ("O=C(Cl)C(Cl)Cl", "inactive"),
    ("C/C=C/CC#N", "inactive"),
]

Lab note: C=CC1CC=CCC1 (stereo not given) gave activation of inactive

Lab note: `CCOC(=O)C(c1c(O)c2ccccc2oc1=O)c1c(O)c2ccccc2oc1=O` gave activation of inactive

Lab note: `CCN(CC)CCN1C(=O)CN=C(c2ccccc2F)c2cc(Cl)ccc21` gave activation of inactive

Lab note: C1CC2OC2CC1C1CO1 (stereo not given) gave activation of inactive

Lab note: `Nc1ccc([As](=O)(O)O)cc1` gave activation of inactive

Lab note: `Cc1ccccc1N` gave activation of inactive

Lab note: `COc1ccc2c(c1OC)C(=O)O[C@@H]2[C@H]1c2cc3c(cc2CCN1C)OCO3` gave activation of inactive

Lab note: `CC(=O)/C=C/c1ccccc1` gave activation of inactive

Lab note: `C[N+](C)(C)C` gave activation of inactive

Lab note: `C=CCc1ccc(OC)cc1` gave activation of inactive

Lab note: `COC(=O)Cc1ccccc1` gave activation of inactive

Lab note: `CCCCCCCCCBr` gave activation of inactive

Lab note: O=C(O)C1C2CCC(O2)C1C(=O)O (stereo not given) gave activation of inactive
